Target: GST-tagged K-Ras mutant / His-tagged hSOS1 (Homo sapiens)
Sequence (P01116 whole entry G12D, form open): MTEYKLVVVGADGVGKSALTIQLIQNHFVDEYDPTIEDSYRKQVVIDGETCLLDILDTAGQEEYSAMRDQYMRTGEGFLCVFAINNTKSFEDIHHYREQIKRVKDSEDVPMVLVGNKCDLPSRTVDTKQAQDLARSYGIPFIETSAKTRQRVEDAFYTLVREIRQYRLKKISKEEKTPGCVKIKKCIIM
Assay: HTRF assay, K-Ras mutant / SOS1 interaction
Format: binding
Settings: compound nos. 401-703; read-out: IC50 against mutant Kras
pIC50: −log10 of the molar value.
Entries annotated with measured pIC50

NCC1C2CCC1CN(c1nc(OCC34CCCN3CCC4)nc3c(F)c(-c4ccc(F)c5sc(N)nc45)c(Cl)cc13)C2 (stereo not drawn) ... > 6.30
Nc1cc(-c2c(Cl)cc3c(N4CC5CCC(C4)N5)nc(OCC45CCCN4CCC5)nc3c2F)c2ccccc2n1 ... < 6.30
Nc1ccc2cccc(-c3c(Cl)cc4c(N5CC6CCC(C5)N6)nc(OC[C@@]56CCCN5C[C@H](F)C6)nc4c3F)c2n1 ... < 6.30
Fc1c(-c2cccc3c2C2CC2C3)c(Cl)cc2c(N3CC4CCC(C3)N4)nc(OC[C@@]34CCCN3C[C@H](F)C4)nc12 (stereo partly drawn) ... < 6.30
N#Cc1c(N)sc2c(F)ccc(-c3c(Cl)cc4c(N5CCCNCC5)nc(OC[C@@]56CCCN5C[C@H](F)C6)nc4c3F)c12 ... > 6.30

Data request: Give the value of pIC50 reported for the following: Nc1nc2c(-c3c(Cl)cc4c(N5CC6CCC(C5)N6)nc(OC[C@@]56CCCN5C[C@H](F)C6)nc4c3F)cccc2cc1F
Data returned: < 6.30

Data request: Give the value of pIC50 reported for the following: CN1CCC[C@H]1COc1nc(N2CCCC(C3CC3)CC2)c2cc(Cl)c(-c3cccc4sc(N)nc34)c(F)c2n1 (stereo partly drawn)
Data returned: < 6.30

Data request: Give the value of pIC50 reported for the following: Nc1nc2c(-c3c(Cl)cc4c(N5CCNCC(F)(F)C5)nc(OCC56CCCN5CCC6)nc4c3F)c(F)ccc2s1
Data returned: > 6.30

Data request: Give the value of pIC50 reported for the following: Nc1cccc(-c2c(Cl)cc3c(N4CC5CCC(C4)N5)nc(OCC45CCCN4CCC5)nc3c2F)c1F
Data returned: < 6.30

Data request: Give the value of pIC50 reported for the following: Fc1c(-c2cccc3ccsc23)c(Cl)cc2c(N3CC4CCC(C3)N4)nc(OC[C@@]34CCCN3C[C@H](F)C4)nc12
Data returned: < 6.30

Data request: Give the value of pIC50 reported for the following: CN(C)CC1(COc2nc(N3CC4CCC(C3)N4)c3ccc(-c4cc(O)cc5ccccc45)c(F)c3n2)CC1
Data returned: > 6.30

Data request: Give the value of pIC50 reported for the following: Nc1nc2c(-c3c(Cl)cc4c(N5C[C@H]6CC[C@@H](C5)[C@@H]6N)nc(OCC56CCCN5CCC6)nc4c3F)ccc(F)c2s1
Data returned: > 6.30

Data request: Give the value of pIC50 reported for the following: CN(CCC1CCC[N+]1(C)C)c1nc(N2CC3CCC(C2)N3)c2ccc(-c3ccc(F)c4sc(N)nc34)nc2n1 (stereo not drawn)
Data returned: < 6.30

Data request: Give the value of pIC50 reported for the following: C#Cc1c(F)ccc2cc(O)cc(-c3ccc4c(N5CCCC6(CNC6)C5)nc(OC[C@@]56CCCN5C[C@H](F)C6)nc4c3F)c12
Data returned: > 6.30

Data request: Give the value of pIC50 reported for the following: Oc1cc(-c2c(F)cc3c(N4CC5CCC(C4)N5)nc(OCC45CCCN4CCC5)nc3c2F)c2ccccc2c1
Data returned: > 6.30

Data request: Give the value of pIC50 reported for the following: N#Cc1c(N)sc2c(F)ccc(-c3c(Cl)cc4c(N5CCC6CCC(C5)N6)nc(OC[C@@]56CCCN5C[C@H](F)C6)nc4c3F)c12 (stereo partly drawn)
Data returned: > 6.30

Data request: Give the value of pIC50 reported for the following: CN1CCC[C@H]1COc1nc(N2CCCC(C(=O)O)CC2)c2cc(Cl)c(-c3cccc4sc(N)nc34)c(F)c2n1 (stereo partly drawn) [Compound 535]
Data returned: > 6.30

Data request: Give the value of pIC50 reported for the following: Nc1nc2c(-c3c(Cl)cc4c(N5C[C@H]6CC[C@@H](C5)C6(F)F)nc(OC[C@@]56CCCN5C[C@H](F)C6)nc4c3F)ccc(F)c2s1
Data returned: < 6.30
